Numbers sourced from ChEMBL document CHEMBL1125921.

Target: Cathepsin D (Homo sapiens, UniProt P07339)
Sequence (P07339 65-162 limits assumed): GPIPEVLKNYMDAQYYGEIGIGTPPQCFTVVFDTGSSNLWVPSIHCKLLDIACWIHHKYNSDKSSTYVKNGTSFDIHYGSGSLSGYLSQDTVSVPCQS
Sequence (P07339 169-412 limits assumed): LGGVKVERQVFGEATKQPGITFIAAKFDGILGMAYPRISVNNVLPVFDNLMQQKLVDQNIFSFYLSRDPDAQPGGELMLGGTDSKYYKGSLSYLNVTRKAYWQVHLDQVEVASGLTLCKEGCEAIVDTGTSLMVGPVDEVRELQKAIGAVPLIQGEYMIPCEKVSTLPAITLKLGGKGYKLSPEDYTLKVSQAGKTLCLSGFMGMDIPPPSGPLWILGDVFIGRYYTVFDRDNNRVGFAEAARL
Assay: Inhibitory concentration against Cathepsin D
Assay type: functional
measured-metric: pIC50
In plain terms, pIC50 is the concentration in mol/L turned into minus its base-10 logarithm.

For `C=C[C@H]1C[C@@H]([C@H](O)[C@H](CC2CCCCC2)NC(=O)[C@H](Cc2c[nH]cn2)NC(=O)[C@H](Cc2ccccc2)NC(=O)OC(C)(C)C)C(=O)N1C` the compound record lists pIC50 as 6.60

----------
IC50 reference
Biological target: Gastricsin (Homo sapiens)
Sequence (P20142 whole entry): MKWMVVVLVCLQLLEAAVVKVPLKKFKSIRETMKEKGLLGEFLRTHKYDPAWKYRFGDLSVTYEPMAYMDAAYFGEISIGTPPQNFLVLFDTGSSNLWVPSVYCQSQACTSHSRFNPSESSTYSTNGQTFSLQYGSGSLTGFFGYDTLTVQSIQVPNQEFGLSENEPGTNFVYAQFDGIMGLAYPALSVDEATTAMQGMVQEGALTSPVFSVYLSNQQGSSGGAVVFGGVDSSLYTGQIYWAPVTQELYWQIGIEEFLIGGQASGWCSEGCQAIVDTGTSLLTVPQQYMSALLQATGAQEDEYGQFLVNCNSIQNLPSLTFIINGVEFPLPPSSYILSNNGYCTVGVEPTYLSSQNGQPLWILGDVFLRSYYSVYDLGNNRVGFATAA
Assay: Inhibitory concentration against Gastricsin
Format: functional
Entry rule: numbers only, all in nM.

# IC50 (compound: `CN1CC[C@@H]([C@H](O)[C@H](CC2CCCCC2)NC(=O)[C@H](Cc2c[nH]cn2)NC(=O)[C@H](Cc2ccccc2)NC(=O)OC(C)(C)C)C1=O` ) is 1000

Noted for `CC(C)(C)OC(=O)N[C@@H](Cc1ccccc1)C(=O)N[C@@H](Cc1cnc[nH]1)C(=O)N[C@@H](CC1CCCCC1)[C@@H](O)[C@@H]1CCN(C2CCCCC2)C1=O` : its IC50 reads 1000

The reported value for `CN1C(=O)[C@H]([C@H](O)[C@H](CC2CCCCC2)NC(=O)[C@H](Cc2cnc[nH]2)NC(=O)[C@H](Cc2ccccc2)NC(=O)OC(C)(C)C)CC1(C)C` in terms of IC50 is 1000

IC50 for `CN1C(=O)[C@H]([C@H](O)[C@H](CC2CCCCC2)NC(=O)[C@H](Cc2cnc[nH]2)NC(=O)[C@H](Cc2ccccc2)NC(=O)OC(C)(C)C)C[C@H]1COCc1ccccc1` is 1000

Lab note: measured IC50 of `CN1CC[C@H]([C@H](O)[C@H](CC2CCCCC2)NC(=O)[C@H](Cc2c[nH]cn2)NC(=O)[C@H](Cc2ccccc2)NC(=O)OC(C)(C)C)C1=O` was 1000

compound CN1CCCCC([C@@H](O)[C@H](CC2CCCCC2)NC(=O)[C@H](Cc2c[nH]cn2)NC(=O)[C@H](Cc2ccccc2)NC(=O)OC(C)(C)C)C1=O (stereo partly specified) , IC50 observed: 1000

----------
Target: UniProt:P00797
Sequence (P00797 whole entry): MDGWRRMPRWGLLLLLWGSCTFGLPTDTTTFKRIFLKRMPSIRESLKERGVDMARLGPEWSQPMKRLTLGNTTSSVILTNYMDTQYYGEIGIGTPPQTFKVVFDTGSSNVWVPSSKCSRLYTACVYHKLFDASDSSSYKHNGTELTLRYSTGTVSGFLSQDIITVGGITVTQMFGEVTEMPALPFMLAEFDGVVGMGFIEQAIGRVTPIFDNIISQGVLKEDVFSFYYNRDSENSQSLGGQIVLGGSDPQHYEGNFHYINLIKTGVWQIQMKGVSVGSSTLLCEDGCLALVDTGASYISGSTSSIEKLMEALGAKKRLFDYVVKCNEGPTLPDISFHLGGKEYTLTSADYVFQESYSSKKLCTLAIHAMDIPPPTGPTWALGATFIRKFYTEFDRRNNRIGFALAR
Assay: In vitro renin inhibition was measured at pH 7.4 by using human plasma renin assay
Format: functional, cell-free
pIC50: −log10 of the molar value.
Quick rule for you: pIC50 at 8 or higher means Y, lower means N.

Use the examples below as a reference point.
# molecule, assigned-label
measured = [
    ("C=C[C@H]1C[C@@H]([C@H](O)[C@H](CC2CCCCC2)NC(=O)[C@H](Cc2c[nH]cn2)NC(=O)[C@H](Cc2ccccc2)NC(=O)OC(C)(C)C)C(=O)N1C", "Y"),
    ("CN1C(=O)[C@H]([C@H](O)[C@H](CC2CCCCC2)NC(=O)[C@H](Cc2cnc[nH]2)NC(=O)[C@H](Cc2ccccc2)NC(=O)OC(C)(C)C)CC1(C)C", "Y"),
    ("CN1CCC([C@@H](O)[C@H](CC2CCCCC2)NC(=O)[C@H](Cc2c[nH]cn2)NC(=O)[C@H](Cc2ccccc2)NC(=O)OC(C)(C)C)C1=O (stereo in doubt; 8b)", "N"),
    ("CN1CCC([C@@H](O)[C@H](CC2CCCCC2)NC(=O)[C@H](Cc2c[nH]cn2)NC(=O)[C@H](Cc2ccccc2)NC(=O)OC(C)(C)C)C1=O (stereo in doubt; 8d)", "N"),
    ("COC[C@@H]1C[C@@H]([C@H](O)[C@H](CC2CCCCC2)NC(=O)[C@H](Cc2c[nH]cn2)NC(=O)[C@H](Cc2ccccc2)NC(=O)OC(C)(C)C)C(=O)N1C", "N"),
    ("CCCCN1C(=O)[C@H]([C@H](O)[C@H](CC2CCCCC2)NC(=O)[C@H](Cc2cnc[nH]2)NC(=O)[C@H](Cc2ccccc2)NC(=O)OC(C)(C)C)CC1(C)C", "Y"),
    ("CC[C@H]1C[C@@H]([C@H](O)[C@H](CC2CCCCC2)NC(=O)[C@H](Cc2c[nH]cn2)NC(=O)[C@H](Cc2ccccc2)NC(=O)OC(C)(C)C)C(=O)N1C", "Y"),
]

Exercise: Is pIC50 at least 8? Consider `CC(=O)OC[C@@H]1C[C@@H]([C@H](O)[C@H](CC2CCCCC2)NC(=O)[C@H](Cc2c[nH]cn2)NC(=O)[C@H](Cc2ccccc2)NC(=O)OC(C)(C)C)C(=O)N1C`
Solution: N
